MEASUREMENT TARGET: Protein farnesyltransferase (Homo sapiens, UniProt P49354+P49356)
EXPERIMENT SUMMARY: Inhibition of H-Ras Farnesyltransferase
Format: protein-complex assay

| CHEM SMILES | IC50 / µM |
| --- | --- |
| CSCC[C@H](NC(=O)[C@H](/C=C\[C@@H](/C=C/[C@@H](N)CS)C(C)C)Cc1ccccc1)C(=O)O | 0.011 |

----------
System: Tumor Cell line
EXPERIMENT SUMMARY: Inhibition of colony formation in soft agar of 14 human tumor cell lines
Type: functional, cell-based
pIC50: −log10 of the molar value.

| CHEM SMILES | pIC50 |
| --- | --- |
| COC(=O)[C@H](CCSC)NC(=O)[C@H](/C=C\[C@@H](/C=C/[C@@H](N)CS)C(C)C)Cc1ccccc1 | 4.22 |
